All figures here come from ChEMBL document CHEMBL3988442.

species on record: Homo sapiens; assay: To identify inhibition of the IFN signalling (Jak-Stat) pathway via expression of an eGFP reporter gene under the control of an IFN-stimulated response element (ISRE) containing MxA promoter.; type: functional; set-up: scale not given: direction of the effect not stated beside the values; details: 30 µM
Threshold check on Percent Effect: at or above -20% gives Yes, strictly below gives No.

Example entries and their recorded answers appear below.
NC(=O)Cn1cc(NC(=O)N2CCCC2)cn1    Yes
CN1CCN(c2cc(CCNC(=O)C3CCC3)nc(C3CC3)n2)CC1    Yes
O=C(c1ccc[nH]1)N1C[C@H](OCc2cccnc2)[C@H]2COC[C@H]21    No

Please check the record `C[C@@H]1CN(C2(C(=O)N3CCOCC3)Cc3ccccc3C2)C[C@H](C)O1` and state if its Percent Effect is at or above -20%. Yes

Please check the record `CCCn1nccc1C(=O)N1CCCN(CCCc2ccccc2)CC1` and state if its Percent Effect is at or above -20%. Yes

Please check the record `CCOc1ccnc(N2CCN(C(=O)c3cn[nH]c3CC)CC2)n1` and state if its Percent Effect is at or above -20%. Yes
